Hello, the source for this data is patent US20250340863A1, in case you need it.

# Study system: HDAC6 (Homo sapiens, UniProt Q9UBN7)
# Construct: made in house; host or cells: E. coli BL21 (DE3), pET-28a plasmid
# Experiment: HDAC6 enzyme inhibition, fluorescence assay
# Format: biochemical
# Experimental conditions: Hill slope of fitted dose-effect curve (GraphPad Prism)
Consider the following compounds and their measured Hill Slope readings.
Give the figure by itself; no unit, no explanation.

Below are worked cases with known answers.
Compound | Hill Slope
Cc1ccccc1C(=O)C(=O)N1CC(O)OCC1C(=O)OCc1ccccc1C(=O)OCc1ccccc1Cl (stereo not drawn) | 1.5
Cc1ccc(C(=O)C(=O)N2CC(O)SCC2C(=O)OCc2cc(C(=O)OCc3cccc(Br)c3)ccn2)cc1 (stereo not drawn) | 1.1

In the following, a different compound is considered.
Please look at this compound and report its Hill Slope: O=C(OCc1ccccn1)C1CCC(COC(=O)C2C[Se]C(O)CN2S(=O)(=O)c2ccccc2)CC1 (stereo not drawn)
1.1

====

# Study system: HDAC6 (Homo sapiens, UniProt Q9UBN7)
# Construct: made in house; host or cells: E. coli BL21 (DE3), pET-28a plasmid
# Experiment: HDAC6 enzyme inhibition, fluorescence assay
# Format: biochemical
# Experimental conditions: top of fitted dose-effect curve of inhibition rate (GraphPad Prism)
Assay readout: Emax (%)
Provide the reading as a plain figure in %.

Molecule | Assay readout | Unit descriptor | Quantitative readout
O=C(OCC1CCCCC1)c1ccc(COC(=O)C2CCC(O)CN2C(=O)C(=O)c2cccc3ccccc23)nc1 (stereo not shown) | Emax | % | 106
O=C(OCC1CCCCC1)c1ccc(COC(=O)C2COC(O)CN2C(=O)C(=O)c2cc3ccccc3[nH]2)nc1 (stereo not shown) | Emax | % | 96
O=C(OCc1ccncc1)c1ccnc(CCOC(=O)C2CSC(O)CN2C(=O)C(=O)c2ccccn2)c1 (stereo not shown) | Emax | % | 102

In the following, a different molecule is considered.
Please look at this molecule and report its Emax: O=C(C(=O)N1CC(O)CCC1C(=O)OCCc1ccccc1C(=O)OCCc1ccccc1)c1ccccn1 (stereo not shown)
98

====

# Study system: HDAC6 (Homo sapiens)
# Construct: made in house; host or cells: E. coli BL21 (DE3), pET-28a plasmid
# Sequence (Q9UBN7 1-1215): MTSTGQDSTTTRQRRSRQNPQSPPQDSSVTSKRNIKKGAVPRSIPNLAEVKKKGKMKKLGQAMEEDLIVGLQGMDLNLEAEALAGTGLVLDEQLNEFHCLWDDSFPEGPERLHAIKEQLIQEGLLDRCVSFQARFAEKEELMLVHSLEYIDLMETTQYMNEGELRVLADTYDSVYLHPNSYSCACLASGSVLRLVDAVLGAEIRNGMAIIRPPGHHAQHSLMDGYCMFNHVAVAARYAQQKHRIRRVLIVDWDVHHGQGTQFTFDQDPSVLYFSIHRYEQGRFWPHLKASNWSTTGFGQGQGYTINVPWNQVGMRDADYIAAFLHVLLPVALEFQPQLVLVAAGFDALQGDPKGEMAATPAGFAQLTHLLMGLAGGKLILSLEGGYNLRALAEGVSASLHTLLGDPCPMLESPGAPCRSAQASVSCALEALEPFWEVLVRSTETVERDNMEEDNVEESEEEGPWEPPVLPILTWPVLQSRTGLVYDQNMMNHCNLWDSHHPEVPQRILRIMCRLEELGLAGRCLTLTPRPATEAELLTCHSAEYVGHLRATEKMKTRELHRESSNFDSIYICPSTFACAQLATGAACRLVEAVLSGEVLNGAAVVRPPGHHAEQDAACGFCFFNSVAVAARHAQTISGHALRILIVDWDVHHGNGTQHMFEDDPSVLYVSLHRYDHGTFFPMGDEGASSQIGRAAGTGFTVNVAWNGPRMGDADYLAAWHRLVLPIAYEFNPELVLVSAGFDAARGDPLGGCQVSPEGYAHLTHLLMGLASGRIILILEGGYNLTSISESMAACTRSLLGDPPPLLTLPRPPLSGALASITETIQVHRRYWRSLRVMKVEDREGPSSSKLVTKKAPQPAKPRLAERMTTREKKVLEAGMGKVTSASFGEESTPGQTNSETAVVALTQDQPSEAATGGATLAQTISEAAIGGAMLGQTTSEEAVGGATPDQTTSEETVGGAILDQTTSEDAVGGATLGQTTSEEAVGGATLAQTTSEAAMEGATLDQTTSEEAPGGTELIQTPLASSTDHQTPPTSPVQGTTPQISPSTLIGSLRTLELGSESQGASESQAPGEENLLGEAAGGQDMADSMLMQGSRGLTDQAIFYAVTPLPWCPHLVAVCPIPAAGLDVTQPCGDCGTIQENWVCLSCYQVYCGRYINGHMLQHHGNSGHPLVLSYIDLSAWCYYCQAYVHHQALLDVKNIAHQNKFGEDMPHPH
# Experiment: HDAC6 enzyme inhibition, fluorescence assay
# Assay type: biochemical
# Experimental conditions: top of fitted dose-effect curve of inhibition rate (GraphPad Prism)
Assay readout: Emax (%)
Provide the reading as a plain figure in %.

Compound | Emax / %
Cc1ccccc1S(=O)(=O)N1CC(O)CCC1C(=O)OCCc1cnccc1C(=O)OCc1ccncc1 (stereo not drawn) | 91.4
O=C(OCC1CCCCC1)c1ccnc(CCOC(=O)C2C[Se]C(O)CN2C(=O)C(=O)c2cccc3ccccc23)c1 (stereo not drawn) | 100
COc1cccc(COC(=O)c2cccc(CCOC(=O)C3CCC(O)CN3C(=O)C(=O)C3=Cc4ccccc4C3)c2)c1 (stereo not drawn) | 102

Please look at this compound and report its Emax: O=C(OCc1ccccc1Cl)c1ccnc(CCOC(=O)C2CCC(O)CN2C(=O)C(=O)c2ccccn2)c1 (stereo not drawn)
99.3

Please look at this compound and report its Emax: Cc1ccccc1C(=O)C(=O)N1CC(O)OCC1C(=O)OCc1ccccc1C(=O)OCc1ccccc1Cl (stereo not drawn)
101

Please look at this compound and report its Emax: Cc1ccc(S(=O)(=O)N2CC(O)CCC2C(=O)OCCc2cccc(C(=O)OCc3ccccc3Cl)c2)cc1 (stereo not drawn)
98

====

Record type: pIC50 measurement. Applies to: HDAC6 (Homo sapiens)
# pIC50 = -log10(concentration in molar units)

Below are worked cases with known answers.
Compound | pIC50
O=C(OCC1CCCCC1)c1ccnc(CCOC(=O)C2C[Se]C(O)CN2C(=O)C(=O)c2cccc3ccccc23)c1 (stereo not shown) | 6.88
Cc1ccccc1S(=O)(=O)N1CC(O)CCC1C(=O)OCCc1cnccc1C(=O)OCc1ccncc1 (stereo not shown) | 7.88
O=C(OCc1ccccn1)C1CCC(COC(=O)C2C[Se]C(O)CN2S(=O)(=O)c2ccccc2)CC1 (stereo not shown) | 9.07

In the following, a different compound is considered.
Print HDAC6 (Homo sapiens) pIC50 for O=C(OCc1ccccc1Cl)c1ccnc(CCOC(=O)C2CCC(O)CN2C(=O)C(=O)c2ccccn2)c1 (stereo not shown) .
7.27

====

Record type: IC50 measurement. Applies to: HDAC6 (Homo sapiens)
Provide the reading as a plain figure in nM.

Below are worked cases with known answers.
Molecule | IC50 / nM
O=C(OCC1CCCCC1)c1ccc(COC(=O)C2CCC(O)CN2C(=O)C(=O)c2cccc3ccccc23)nc1 (stereo not shown) | 5.99
COc1ccc(COC(=O)c2ccc(CCOC(=O)C3C[Se]C(O)CN3C(=O)C(=O)c3ccncc3)nc2)cc1 (stereo not shown) | 0.41
O=C(C(=O)N1CC(O)CCC1C(=O)OCCc1ccccc1C(=O)OCCc1ccccc1)c1ccccn1 (stereo not shown) | 2.2

In the following, a different molecule is considered.
Print HDAC6 (Homo sapiens) IC50 for O=C(C(=O)N1CC(O)CCC1C(=O)OCCC1CCCCC1C(=O)OCc1cccc(Br)c1)c1cc2ccccc2[nH]1 (stereo not shown) .
0.23

====

Consider the following compounds and their measured Emax readings.
# Study system: HDAC6 (Homo sapiens)
# Construct: made in house; host or cells: E. coli BL21 (DE3), pET-28a plasmid
# Experiment: HDAC6 enzyme inhibition, fluorescence assay
# Format: biochemical
# Experimental conditions: top of fitted dose-effect curve of inhibition rate (GraphPad Prism)
Provide the reading as a plain figure in %.

Compound | Study system | Emax, %
O=C(C(=O)N1CC(O)CCC1C(=O)OCCC1CCCCC1C(=O)OCc1cccc(Br)c1)c1cc2ccccc2[nH]1 (stereo not shown) [Compound 11] | HDAC6 (Homo sapiens) | 100

Please look at this compound and report its Emax: Cc1ccc(C(=O)C(=O)N2CC(O)SCC2C(=O)OCc2cc(C(=O)OCc3cccc(Br)c3)ccn2)cc1 (stereo not shown) [Compound 6]
100

Please look at this compound and report its Emax: Cc1ccc(S(=O)(=O)N2CC(O)CCC2C(=O)OCc2ccc(C(=O)OCc3ccccc3Cl)cn2)cc1 (stereo not shown) [Compound 9]
96.4

Please look at this compound and report its Emax: CC(COC(=O)c1cccc(COC(=O)C2COC(O)CN2C(=O)C(=O)C2=Cc3ccccc3C2)c1)c1ccccc1 (stereo not shown) [Compound 16]
99

====

# Study system: HDAC6 (Homo sapiens, UniProt Q9UBN7)
# Construct: made in house; host or cells: E. coli BL21 (DE3), pET-28a plasmid
# Sequence (Q9UBN7 1-1215): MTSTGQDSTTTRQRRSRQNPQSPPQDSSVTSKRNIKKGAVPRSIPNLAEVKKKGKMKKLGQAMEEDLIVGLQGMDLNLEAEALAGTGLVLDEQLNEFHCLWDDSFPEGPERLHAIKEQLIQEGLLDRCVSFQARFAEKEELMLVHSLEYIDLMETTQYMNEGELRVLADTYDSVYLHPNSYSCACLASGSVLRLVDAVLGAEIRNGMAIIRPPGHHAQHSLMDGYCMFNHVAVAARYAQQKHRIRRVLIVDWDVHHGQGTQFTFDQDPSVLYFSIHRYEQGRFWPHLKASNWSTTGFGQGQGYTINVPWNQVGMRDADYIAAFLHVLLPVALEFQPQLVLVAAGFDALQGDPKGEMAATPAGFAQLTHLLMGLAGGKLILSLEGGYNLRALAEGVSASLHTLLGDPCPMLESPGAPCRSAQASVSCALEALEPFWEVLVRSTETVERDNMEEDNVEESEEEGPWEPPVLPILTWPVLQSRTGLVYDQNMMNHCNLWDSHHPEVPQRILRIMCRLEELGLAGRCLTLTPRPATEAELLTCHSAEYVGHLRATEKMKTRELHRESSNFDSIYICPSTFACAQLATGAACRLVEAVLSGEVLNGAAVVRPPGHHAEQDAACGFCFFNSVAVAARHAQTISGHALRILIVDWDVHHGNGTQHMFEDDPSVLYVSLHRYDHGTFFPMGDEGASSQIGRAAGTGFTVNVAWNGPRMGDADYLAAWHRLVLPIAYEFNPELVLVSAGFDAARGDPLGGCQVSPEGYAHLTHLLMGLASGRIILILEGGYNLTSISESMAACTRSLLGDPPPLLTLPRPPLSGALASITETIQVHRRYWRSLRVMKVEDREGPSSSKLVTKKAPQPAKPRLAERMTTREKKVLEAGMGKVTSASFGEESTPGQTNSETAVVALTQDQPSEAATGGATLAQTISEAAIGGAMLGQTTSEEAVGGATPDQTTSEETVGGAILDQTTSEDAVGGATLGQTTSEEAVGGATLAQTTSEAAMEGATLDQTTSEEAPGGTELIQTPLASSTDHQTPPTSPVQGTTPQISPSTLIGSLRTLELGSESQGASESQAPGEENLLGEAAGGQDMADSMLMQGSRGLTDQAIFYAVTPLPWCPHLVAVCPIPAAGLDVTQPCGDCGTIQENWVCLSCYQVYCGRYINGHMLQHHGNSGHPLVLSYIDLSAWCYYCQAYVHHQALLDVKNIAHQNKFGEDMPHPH
# Experiment: HDAC6 enzyme inhibition, fluorescence assay
# Assay type: biochemical
# Experimental conditions: Hill slope of fitted dose-effect curve (GraphPad Prism)
# Description: The compounds to be tested were balanced to room temperature, and the compounds were diluted 4 times with DMSO in a 384-well plate, with a starting working concentration of 250 nM and a total of 7 concentration gradients. […]
If the reported Hill Slope equals or exceeds 1, assign 1.0. If not, assign 0.0.

Worked examples, 3 compounds total:
Compound | Study system | Cat
O=C(OCC1CCCCC1)c1ccnc(CCOC(=O)C2C[Se]C(O)CN2C(=O)C(=O)c2cccc3ccccc23)c1 (stereo not drawn) | HDAC6 (Homo sapiens, UniProt Q9UBN7) | 0.0
O=C(C(=O)N1CC(O)CCC1C(=O)OCCc1ccccc1C(=O)OCCc1ccccc1)c1ccccn1 (stereo not drawn) | HDAC6 (Homo sapiens, UniProt Q9UBN7) | 1.0
O=C(C(=O)N1CC(O)OCC1C(=O)OCCC1CCCCC1C(=O)OCc1ccc(Cl)cc1)c1ccccn1 (stereo not drawn) | HDAC6 (Homo sapiens, UniProt Q9UBN7) | 0.0

Dear colleague, could you confirm whether O=C(C(=O)N1CC(O)SCC1C(=O)OCCC1CCCCC1C(=O)OCc1ccccn1)c1cc2ccccc2[nH]1 (stereo not drawn) has Hill Slope at or above 1?
1.0

Dear colleague, could you confirm whether O=C(OCc1ccccc1Cl)c1ccnc(CCOC(=O)C2CCC(O)CN2C(=O)C(=O)c2ccccn2)c1 (stereo not drawn) has Hill Slope at or above 1?
0.0

Dear colleague, could you confirm whether COc1ccc(COC(=O)c2ccc(CCOC(=O)C3C[Se]C(O)CN3C(=O)C(=O)c3ccncc3)nc2)cc1 (stereo not drawn) has Hill Slope at or above 1?
1.0

Dear colleague, could you confirm whether O=C(OCC1CCCCC1)c1ccc(COC(=O)C2COC(O)CN2C(=O)C(=O)c2cc3ccccc3[nH]2)nc1 (stereo not drawn) has Hill Slope at or above 1?
1.0

Dear colleague, could you confirm whether COc1cccc(COC(=O)c2cccc(CCOC(=O)C3CCC(O)CN3C(=O)C(=O)C3=Cc4ccccc4C3)c2)c1 (stereo not drawn) has Hill Slope at or above 1?
1.0

Dear colleague, could you confirm whether Cc1ccc(S(=O)(=O)N2CC(O)CCC2C(=O)OCc2ccc(C(=O)OCc3ccccc3Cl)cn2)cc1 (stereo not drawn) has Hill Slope at or above 1?
0.0

Dear colleague, could you confirm whether O=C(OCC1CCCCC1)c1ccc(COC(=O)C2CCC(O)CN2C(=O)C(=O)c2cccc3ccccc23)nc1 (stereo not drawn) has Hill Slope at or above 1?
0.0

Dear colleague, could you confirm whether Cc1ccc(S(=O)(=O)N2CC(O)CCC2C(=O)OCCc2cccc(C(=O)OCc3ccccc3Cl)c2)cc1 (stereo not drawn) has Hill Slope at or above 1?
0.0

Dear colleague, could you confirm whether Cc1ccccc1S(=O)(=O)N1CC(O)CCC1C(=O)OCCc1cnccc1C(=O)OCc1ccncc1 (stereo not drawn) has Hill Slope at or above 1?
1.0
